# Lookup of reported furin cleavage Z-score keyed by entry
measurementTarget: furin, P09958;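 further: purified furin at 1:10 enzyme:substrate in 50 mM HEPES pH 7.5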
Sequence (P09958 whole entry): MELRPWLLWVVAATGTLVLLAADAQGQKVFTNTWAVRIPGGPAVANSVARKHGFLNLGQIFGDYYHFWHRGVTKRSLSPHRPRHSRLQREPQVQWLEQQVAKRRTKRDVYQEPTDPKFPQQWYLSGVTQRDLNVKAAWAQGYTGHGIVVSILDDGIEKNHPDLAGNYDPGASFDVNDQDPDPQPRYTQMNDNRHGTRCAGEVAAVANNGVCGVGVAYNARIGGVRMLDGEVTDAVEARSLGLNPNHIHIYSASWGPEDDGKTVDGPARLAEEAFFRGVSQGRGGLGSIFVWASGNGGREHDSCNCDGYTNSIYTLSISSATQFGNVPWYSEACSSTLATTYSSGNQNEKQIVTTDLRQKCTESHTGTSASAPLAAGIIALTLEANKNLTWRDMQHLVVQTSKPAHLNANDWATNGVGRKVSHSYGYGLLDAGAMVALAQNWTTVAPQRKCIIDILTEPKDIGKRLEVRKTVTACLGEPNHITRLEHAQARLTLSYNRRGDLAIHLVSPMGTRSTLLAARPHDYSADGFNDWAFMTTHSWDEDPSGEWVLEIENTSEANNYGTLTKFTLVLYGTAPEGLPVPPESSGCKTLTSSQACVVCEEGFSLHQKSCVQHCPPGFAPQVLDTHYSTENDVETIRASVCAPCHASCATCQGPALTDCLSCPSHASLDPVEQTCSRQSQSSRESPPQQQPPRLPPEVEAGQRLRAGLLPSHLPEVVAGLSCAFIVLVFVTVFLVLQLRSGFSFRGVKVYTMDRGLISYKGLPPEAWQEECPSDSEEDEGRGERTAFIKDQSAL
assay: furin cleavage Z-score vs untreated control; higher = more cleavage, active = 3.5 or more, inactive = 1 or less, 8 variable residues between constant flanks
testSettings: 7.5 min
Some of the results follow. The true hit rate is not given.
resultType: furin cleavage Z-score

itemSequence	resultType	value
CAEANAEDVVAGNASASA [HC1366]	furin cleavage Z-score	0.916
CAWVCCSMSYAGNASASA [HC1988]	furin cleavage Z-score	0.172
CARKAKEEGTAGNASASA [FS-2957]	furin cleavage Z-score	-0.545
CATVCCSMSYAGNASASA [HC1998]	furin cleavage Z-score	0.937
CANVSVAHDGAGNASASA [HC1555]	furin cleavage Z-score	0.322
CAVVCCSMEYAGNASASA [HC2072]	furin cleavage Z-score	-2.66
CARYSRSSAAAGNASASA [FS-1811]	furin cleavage Z-score	1.3
